Test system: Candida albicans
Assay: Antimicrobial activity against Candida albicans after 48 hrs by tube dilution method
Type: functional
Let's look at some compounds and their measured MFC.
Write down the numeric answer in µg/mL and omit the unit.

                                 smilescode  valueobserved
0  O=C(c1ccc(O)cc1O)n1c(-c2ccc(S(=O)(=O)O)cc2)nc2ccccc21           12.5
1  O=C(c1ccccc1)n1c(-c2ccc(S(=O)(=O)O)cc2)nc2ccccc21             50
2  Cc1ccccc1C(=O)n1c(-c2ccc(S(=O)(=O)O)cc2)nc2ccccc21             50

Query block: Entry "O=C(c1ccc([N+](=O)[O-])cc1)n1c(-c2ccc(S(=O)(=O)O)cc2)nc2ccccc21" : reported MFC = ?
Result block: 25

Query block: Also "Nc1ccccc1C(=O)n1c(-c2ccc(S(=O)(=O)O)cc2)nc2ccccc21" ?
Result block: 50

Query block: Entry to check: "CCCCC(=O)n1c(-c2ccc(S(=O)(=O)O)cc2)nc2ccccc21"
Result block: 12.5

Query block: Can you check "O=C(c1cccc(O)c1)n1c(-c2ccc(S(=O)(=O)O)cc2)nc2ccccc21" next?
Result block: 50

Query block: "CCCCCCCC/C=C/CCCCCCCC(=O)n1c(-c2ccc(S(=O)(=O)O)cc2)nc2ccccc21" , same question.
Result block: 50

###

# maps each entry to its CC50
Test: Cytotoxicity against human HeLa cells assessed as cell viability by MTS assay
Format: cell-based
Conditions: HeLa cells

>>> print(df.to_string())
                               compound  valueobserved
0  Nc1ncnc2c1ncn2C[C@H](O)CO [(S)-DHPA]    > 250 µg/mL

Query block: Give the measured CC50 of "NC(=O)c1ncn([C@@H]2O[C@H](CO)[C@@H](O)[C@H]2O)n1" .
Result block: > 250 µg/mL

###

Test system: Human alphaherpesvirus 1
Test: Antiviral activity against thymidine kinase deficient acyclovir-resistant Herpes simplex virus 1 KOS infected in HEL cells assessed as inhibition of virus induced cytopathicity after 2 to 4 days by MTS assay
Format: functional, organism-based
Settings: Human alphaherpesvirus 1, KOS
Here the recorded EC50 is given for each entry.

                                 smilescode  valueobserved
0  Nc1ccn(C[C@@H](CO)OCP(=O)(O)O)c(=O)n1.O.O    > 250 µg/mL
1  Nc1ccccc1C(=O)n1c(-c2ccc(S(=O)(=O)O)cc2)nc2ccccc21    > 100 µg/mL
2  CCCCC(=O)n1c(-c2ccc(S(=O)(=O)O)cc2)nc2ccccc21    > 100 µg/mL

Query block: What measured EC50 is associated with "O=C(c1ccc([N+](=O)[O-])cc1)n1c(-c2ccc(S(=O)(=O)O)cc2)nc2ccccc21" on Human alphaherpesvirus 1?
Result block: > 100 µg/mL

Query block: Same lookup for "O=C(c1ccccc1)n1c(-c2ccc(S(=O)(=O)O)cc2)nc2ccccc21" , please.
Result block: > 100 µg/mL

###

Assay: Cytotoxicity against african green monkey Vero cells assessed as altered cell morphology
Type: cell-based
Settings: chlorocebus sabaeus
experimentalReadout: MCC

>>> print(df.to_string())
                                 smilescode  valueobserved
0  C/C=C/C(=O)n1c(-c2ccc(S(=O)(=O)O)cc2)nc2ccccc21    > 100 µg/mL
1  C=CC(=O)n1c(-c2ccc(S(=O)(=O)O)cc2)nc2ccccc21    > 100 µg/mL
2  C=C(C)C(=O)n1c(-c2ccc(S(=O)(=O)O)cc2)nc2ccccc21    > 100 µg/mL
3  Nc1ccc(C(=O)n2c(-c3ccc(S(=O)(=O)O)cc3)nc3ccccc32)cc1    > 100 µg/mL
4  O=C(c1ccccc1)n1c(-c2ccc(S(=O)(=O)O)cc2)nc2ccccc21    > 100 µg/mL
5  Nc1ccccc1C(=O)n1c(-c2ccc(S(=O)(=O)O)cc2)nc2ccccc21       20 µg/mL
6  Cc1ccc(S(=O)(=O)n2c(-c3ccc(S(=O)(=O)O)cc3)nc3ccccc32)cc1    > 100 µg/mL
7  O=C(c1cccc(O)c1)n1c(-c2ccc(S(=O)(=O)O)cc2)nc2ccccc21    > 100 µg/mL
8  Cc1ccc(C(=O)n2c(-c3ccc(S(=O)(=O)O)cc3)nc3ccccc32)cc1    > 100 µg/mL
9  NC(=O)c1ncn([C@@H]2O[C@H](CO)[C@@H](O)[C@H]2O)n1    > 250 µg/mL

Query block: Need MCC of "O=C(c1ccc([N+](=O)[O-])cc1)n1c(-c2ccc(S(=O)(=O)O)cc2)nc2ccccc21" , thanks.
Result block: > 100 µg/mL

Query block: Query "CCCCC(=O)n1c(-c2ccc(S(=O)(=O)O)cc2)nc2ccccc21" next
Result block: > 100 µg/mL
